- study target: Matrix-associated proTGFβ1 (hLTBP1, hLTBP3)
- assay notes: MSD-SET, average over matrix-associated complexes
- Assay type: binding, human
- stated conditions: average of (B) and (C), read-out: (D) ECM AVRG
measured property: Kd (nM)
Reply numerically in nM, unit not repeated.

Some solved cases for reference:
Ab31: proTGFβ1 antibody; VH SEQ ID NO: 139, VL SEQ ID NO: 15 (antibody, V domains shown) VH: EVQLVESGGGLVQPGGSLRLSCAASGFTFSSFSMDWVRQAPGKGLEWVSYISPDASTIYYADSVKGRFTISRDNAKNTLYLQMNSLRAEDTAVYYCARAVLDYGDMLDPWGQGTLVTVSS VL: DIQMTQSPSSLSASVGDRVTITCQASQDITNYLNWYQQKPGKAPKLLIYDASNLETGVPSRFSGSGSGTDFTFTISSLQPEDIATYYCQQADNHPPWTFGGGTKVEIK: 0.017
Ab26: proTGFβ1 antibody; VH SEQ ID NO: 134, VL SEQ ID NO: 15 (antibody, V domains shown) VH: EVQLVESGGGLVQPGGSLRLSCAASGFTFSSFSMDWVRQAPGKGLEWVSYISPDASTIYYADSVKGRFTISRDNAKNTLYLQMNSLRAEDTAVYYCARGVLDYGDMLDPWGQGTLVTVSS VL: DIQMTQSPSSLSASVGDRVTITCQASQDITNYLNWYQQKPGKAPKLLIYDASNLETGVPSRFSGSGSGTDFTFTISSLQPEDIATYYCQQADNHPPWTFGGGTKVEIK: 0.026

Input line: Fill in Kd for record Ab24: proTGFβ1 antibody; VH SEQ ID NO: 132, VL SEQ ID NO: 15 (antibody, V domains shown) VH: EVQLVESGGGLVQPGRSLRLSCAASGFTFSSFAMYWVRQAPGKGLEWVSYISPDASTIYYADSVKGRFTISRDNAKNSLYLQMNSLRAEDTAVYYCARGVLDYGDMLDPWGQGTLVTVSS VL: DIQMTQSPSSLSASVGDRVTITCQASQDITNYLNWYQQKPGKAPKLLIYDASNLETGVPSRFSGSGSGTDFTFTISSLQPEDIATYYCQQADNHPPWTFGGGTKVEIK
Output line: 0.023

Data provenance is patent US12252531B2.
